test system: BT-549 breast; experiment: NCI-60 one-dose screen, 48 h; details: 10 µM unless noted
The panel holds about 83,000 compounds, 20% with a hit somewhere; the sample as a whole holds those more often. The source made the active and inactive calls. Rule for the calls: active = growth percent below 10; inactive = the rest.
Labels: y = active, n = inactive

* Cc1ccc2sc3c(NCCN)nc4ccccc4c3c(=O)c2c1 | n
* CCOC(=O)c1c2c(n(-c3ccc(C#N)cc3)c1-c1ccccc1)C=CCC2 | n
* Cc1nn(-c2ccccc2)c2c1N=c1s/c(=C\c3ccc(C(F)(F)F)cc3)c(=O)n1CN2 | n
* O=C(/C=C/c1ccc([N+](=O)[O-])o1)NNC(=O)c1cc2ccccc2cc1O | y
* O=S(=O)(Nc1ccc(-c2nc(-c3cccc(OCCN4CCOCC4)c3)c(-c3ccnc(Br)c3)[nH]2)cc1)c1ccccc1 | n
* COc1cccc(/C=C2\C=C(c3ccccc3)N(Cc3ccccc3)C2=O)c1 | n
* CN1CCN(Cc2ccc(NC(=O)c3cncc(C#Cc4cnccc4C#N)c3)cc2C(F)(F)F)CC1 | n
* COc1ccc(-c2nc3sc(-c4ccc(Cl)cc4)cn3n2)cc1 | n
* CCN(CC)c1ccc(C2=NN(C(C)=O)C(c3cc(OC)c(OC)c(OC)c3)C2)cc1 (centres undefined) | y

Each recorded value in this set is attributed to PubChem BioAssay (NCI).
